These measurements were taken from patent US5753710A.

target: Na^+ /H^+ exchanger of rabbit erythrocytes (Oryctolagus cuniculus); construct: endogenous in cells; test: Inhibition of the Na^+ /H^+ exchanger of rabbit erythrocytes (amiloride-sensitive Na^+ influx, flame photometry); details: erythrocytes of rabbits fed 2% cholesterol diet for six weeks; pH 7.4, 37° C.; hyperosmolar salt/sucrose medium
Sequence (P23791 whole entry): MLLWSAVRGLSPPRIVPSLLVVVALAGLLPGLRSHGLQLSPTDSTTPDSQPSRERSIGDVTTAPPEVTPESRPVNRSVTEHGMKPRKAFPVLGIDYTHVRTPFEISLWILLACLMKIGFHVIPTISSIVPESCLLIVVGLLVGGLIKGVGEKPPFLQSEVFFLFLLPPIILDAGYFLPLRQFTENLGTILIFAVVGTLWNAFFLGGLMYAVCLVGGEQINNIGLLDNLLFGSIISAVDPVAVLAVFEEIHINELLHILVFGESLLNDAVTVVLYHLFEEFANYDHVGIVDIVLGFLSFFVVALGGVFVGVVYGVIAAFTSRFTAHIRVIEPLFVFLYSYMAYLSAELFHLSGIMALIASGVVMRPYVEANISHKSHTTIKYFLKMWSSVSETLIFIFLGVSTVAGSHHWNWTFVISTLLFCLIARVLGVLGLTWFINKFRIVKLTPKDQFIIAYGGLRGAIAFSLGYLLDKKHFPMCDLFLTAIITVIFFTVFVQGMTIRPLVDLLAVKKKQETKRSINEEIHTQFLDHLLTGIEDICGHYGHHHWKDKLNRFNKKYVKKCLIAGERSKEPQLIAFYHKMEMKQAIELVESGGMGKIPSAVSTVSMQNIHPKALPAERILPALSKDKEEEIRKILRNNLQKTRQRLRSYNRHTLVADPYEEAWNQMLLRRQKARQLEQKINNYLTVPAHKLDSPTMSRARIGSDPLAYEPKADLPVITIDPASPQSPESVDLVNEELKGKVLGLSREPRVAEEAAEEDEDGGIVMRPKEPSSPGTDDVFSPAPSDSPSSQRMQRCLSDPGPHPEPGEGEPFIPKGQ
Counter-ions that a name gives are not always drawn.
Endpoint Name: IC50

> print(dat)
                                   compound  endpoint.name     result
1  NC(N)=NC(=O)OCc1ccc(Oc2cccnc2)c(C(F)(F)F)c1 [Example 1, dihydrochloride]           IC50  < 1000 nM
